- experiment.summary: Inhibition of HCV 3a NS3 helicase by fluorimetry
- Set-up: species or system Hepatitis C virus subtype 3a
measured.metric: IC50 (µM)
Dear colleague, please return just the value in µM, with no unit written.

# IC50 of COc1cccc2c(=O)c3cc(F)cc(C(=O)Nc4cccnc4)c3[nH]c12 = 7.3

* * *

- Tested on: Hepatitis C virus
- experiment.summary: Antiviral activity against HCV 1b infected in human HuH7 cells assessed as inhibition of viral RNA replication after 4 days by replicon assay
- Assay type: functional, organism-based, Hepacivirus hominis
- experimental.context: genotype 1b, Huh-7, 96 h
Could you mark each record label 1 if its EC50 falls strictly under 4 µM, and label 0 if it equals or exceeds it?

Illustrative cases are given below, each with its answer.
| compound | group.label |
| --- | --- |
| COc1cc(NC(=O)c2cccc3c(=O)c4cccc(OC)c4[nH]c23)cc(OC)c1OC | label 0 |
| COc1cccc2c(=O)c3cc(F)cc(C(=O)Nc4cc(Cl)ccn4)c3[nH]c12 | label 0 |
| NC(=O)c1ncn([C@@H]2O[C@H](CO)[C@@H](O)[C@H]2O)n1 [RIBAVIRIN] | label 0 |
| COc1cccc2c(=O)c3cc(Cl)cc(C(=O)Nc4cc(Cl)ccn4)c3[nH]c12 | label 0 |
| O=C(Nc1ccncc1)c1cccc2c(=O)c3cccc(OCc4ccccc4)c3[nH]c12 | label 0 |
| COc1cccc2c(=O)c3cccc(C(=O)Nc4cccnc4)c3[nH]c12 | label 1 |
| COc1cccc2c(=O)c3cc(F)cc(C(=O)Nc4cccnc4)c3[nH]c12 | label 1 |
| COc1cccc2c(=O)c3cc(Cl)cc(C(=O)Nc4cccnc4)c3[nH]c12 | label 1 |
| COc1cccc2c(=O)c3cccc(C(=O)Nc4ccccn4)c3[nH]c12 | label 1 |

Query compound follows.
*Q* Given the entry COc1cccc2c(=O)c3cc(Cl)cc(C(=O)Nc4ccccn4)c3[nH]c12 , would its reported EC50 be below 4 µM?
*A* label 0

Origin of values: ChEMBL document CHEMBL1156199
